experimental.protocol: Solubility by HPLC
Assay type: physicochemical
measurement.conditions: organic solvent or mixture, thermodynamic from solid; Acetone, room temperature, 24 hr

[
  {
    "compound": "Cc1nc2cccc(N)c2c(=O)n1C1CCC(=O)NC1=O.Cl (stereo not shown) [Form A1]",
    "solubility at 24 h / µg/mL": 2550
  }
]

###

experimental.protocol: Approximate solubility in test solvents (visual/gravimetric)
Assay type: physicochemical
measurement.conditions: thermodynamic from solid; water, about 25° C.; read-out: approximate solubility
observed.property: solubility

[
  {
    "compound": "Cc1nc2cccc(N)c2c(=O)n1C1CCC(=O)NC1=O.Cl (stereo not shown) [Form A1]",
    "observed.property": "solubility",
    "recorded.measurement": "3000 to 10000 µg/mL"
  }
]
